Below: a set of entries, each annotated with reported EC50.
Target: THR beta-LBD (Homo sapiens, UniProt P10828)
Construct: THR beta-LBD (the final concentration is 0.5 nM) was added to the 384-well assay plate; purchased Invitrogen PV4686
Sequence (P10828 217-461 limits assumed): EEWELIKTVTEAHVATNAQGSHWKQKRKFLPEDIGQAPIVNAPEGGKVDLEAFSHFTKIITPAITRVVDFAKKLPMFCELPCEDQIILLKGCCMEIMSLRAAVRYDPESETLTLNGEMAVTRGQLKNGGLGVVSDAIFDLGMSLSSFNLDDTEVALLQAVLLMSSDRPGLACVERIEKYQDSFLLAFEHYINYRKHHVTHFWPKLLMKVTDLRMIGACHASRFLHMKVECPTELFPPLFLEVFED
Assay: THR-β Coactivator Peptide Recruitment Assay (LanthaScreen TR-FRET)
Format: biochemical
Details: TR-FRET coactivator recruitment, THR beta-LBD 0.5 nM; read-out: THRβ EC50

Previously resolved entries follow.
Molecule: C[C@]1(NS(=O)(=O)c2cc(Oc3c(Cl)cc(-n4nc(C(F)F)c(=O)[nH]c4=O)cc3Cl)ncc2O)C[C@H](O)C1 [Compound 168]
Obs value: 0.002 to 0.02 µM

Molecule: CN([C@H]1C[C@H](O)C1)S(=O)(=O)c1cc(Oc2c(Cl)cc(-n3nc(C(F)F)c(=O)[nH]c3=O)cc2Cl)ccc1O [Compound 99]
Obs value: 0.002 to 0.02 µM

Please find the next molecule below.
Ask: // lookup EC50 for N#CC1(NS(=O)(=O)c2cc(Oc3c(Cl)cc(-n4nc(C(F)F)c(=O)[nH]c4=O)cc3Cl)ncc2O)CC1 [Compound 135]
Reply: 0.002 to 0.02 µM

Source listed as patent US12291518B2.
